- System: Alopecurus myosuroides (ALOMY)
- assay_info: Post-emergence herbicidal activity, glasshouse pot test
- Format: in vivo
- condition_info: Alopecurus myosuroides, rate 500 g/ha, evaluated after 14 or 15 days, read-out: Post-emergence activity, ALOMY (100=total damage to plant; 0=no damage to plant)
endpoint_name: pest or weed control at 500 g/ha (%)
Reply with just the number (in %).

Sample answers from the record:
>>> readout_number("CCc1cc(C)cc(CC)c1C1=C(O)CC(CC(C)[S+]([O-])CC)CC1=O (centres unmarked)")
90
>>> readout_number("CCCS(=O)(=O)C(C)CC1CC(=O)C(c2c(CC)cc(C)cc2CC)=C(O)C1 (centres unmarked)")
90
>>> readout_number("CCc1cc(CC)c(C2=C(OC(=O)C(C)(C)C)CC3(CCOCC3)CC2=O)c(CC)c1")
60
>>> readout_number("CCc1cc(C)cc(CC)c1C1=C(O)CC(CC(C)S(C)(=O)=O)CC1=O (centres unmarked)")
70

Proceed to the following item.
Query for Alopecurus myosuroides (ALOMY): what pest or weed control at 500 g/ha does the record show for CCc1cc(C)cc(CC)c1C1=C(OC(=O)C(C)(C)C)CC(C(C)(C)SC)CC1=O (centres unmarked) ?
100

----------
Measured pest or weed control at 500 g/ha of individual entries
- System: Setaria faberi (SETFA)
- assay_info: Pre-emergence herbicidal activity, glasshouse pot test
- Type: in vivo
- condition_info: Setaria faberi, 480 h, rate 500 g/ha, evaluated after 20 days, read-out: Pre-emergence activity, SETFA (100=total damage to plant; 0=no damage to plant)
Reply with just the number (in %).

>>> readout_number("CCc1cc(C)cc(CC)c1C1=C(OC(=O)C(C)(C)C)CC(C(C)(C)SC)CC1=O (stereo not shown)")
100
>>> readout_number("CCc1cc(C)cc(CC)c1C1=C(O)CC(CC[S+](C)[O-])CC1=O (stereo not shown)")
90
>>> readout_number("CCCCCCCCCCCCCCCC(=O)OC1=C(c2c(CC)cc(C)cc2CC)C(=O)CC2(CCOCC2)C1")
100
>>> readout_number("CCCS(=O)(=O)C(C)CC1CC(=O)C(c2c(CC)cc(C)cc2CC)=C(O)C1 (stereo not shown)")
100
>>> readout_number("CCc1ccc(-c2ccc(Cl)cc2)cc1C1=C(O)CC(CCSC)CC1=O (stereo not shown)")
100

Consider the molecule "C#CCOC1=C(c2c(CC)cc(C)cc2CC)C(=O)CC2(CCOCC2)C1" and give its measured pest or weed control at 500 g/ha.
90

Consider the molecule "CCc1cc(C)cc(CC)c1C1=C(OC(=O)CC(C)C)CC2(CCOCC2)CC1=O" and give its measured pest or weed control at 500 g/ha.
100

Consider the molecule "CCc1cc(C)cc(CC)c1C1=C(OC)CC2(CCOCC2)CC1=O" and give its measured pest or weed control at 500 g/ha.
10

Consider the molecule "CCCCCCC(=O)OC1=C(c2c(CC)cc(C)cc2CC)C(=O)CC2(CCOCC2)C1" and give its measured pest or weed control at 500 g/ha.
100

Consider the molecule COC1CCC2(CC1)CC(=O)C(c1cc(C)ccc1C)=C(OC(=O)CC(C)(C)C)C2 (stereo not shown) and give its measured pest or weed control at 500 g/ha.
100

Consider the molecule "Cc1cc(C)c(C2=C(O)CC3(CCS(=O)(=O)CC3)CC2=O)c(C)c1" and give its measured pest or weed control at 500 g/ha.
30
